# Test: Clearance of NAC, blood thiol concentration every 15 minutes by colorimetric kit
# Type: in vivo
# Experimental Conditions: rat, intravenous, other: IA into the descending aorta, IV or IA into the descending aorta, 140, 400, 1000 and 1200 mg/kg, all doses
Endpoint: half-life

## Task What value of half-life has been reported for the following compound? CC(=O)N[C@@H](CS)C(=O)O [NAC, N-acetylcysteine]
## Result < 15 min
